# credit: paper PMC2585076

# TESTED TARGET: Ca^2+-activated Cl^- channel (CaCC) (Xenopus laevis, UniProt B5SVV6)
# Sequence (B5SVV6 entry or part of it): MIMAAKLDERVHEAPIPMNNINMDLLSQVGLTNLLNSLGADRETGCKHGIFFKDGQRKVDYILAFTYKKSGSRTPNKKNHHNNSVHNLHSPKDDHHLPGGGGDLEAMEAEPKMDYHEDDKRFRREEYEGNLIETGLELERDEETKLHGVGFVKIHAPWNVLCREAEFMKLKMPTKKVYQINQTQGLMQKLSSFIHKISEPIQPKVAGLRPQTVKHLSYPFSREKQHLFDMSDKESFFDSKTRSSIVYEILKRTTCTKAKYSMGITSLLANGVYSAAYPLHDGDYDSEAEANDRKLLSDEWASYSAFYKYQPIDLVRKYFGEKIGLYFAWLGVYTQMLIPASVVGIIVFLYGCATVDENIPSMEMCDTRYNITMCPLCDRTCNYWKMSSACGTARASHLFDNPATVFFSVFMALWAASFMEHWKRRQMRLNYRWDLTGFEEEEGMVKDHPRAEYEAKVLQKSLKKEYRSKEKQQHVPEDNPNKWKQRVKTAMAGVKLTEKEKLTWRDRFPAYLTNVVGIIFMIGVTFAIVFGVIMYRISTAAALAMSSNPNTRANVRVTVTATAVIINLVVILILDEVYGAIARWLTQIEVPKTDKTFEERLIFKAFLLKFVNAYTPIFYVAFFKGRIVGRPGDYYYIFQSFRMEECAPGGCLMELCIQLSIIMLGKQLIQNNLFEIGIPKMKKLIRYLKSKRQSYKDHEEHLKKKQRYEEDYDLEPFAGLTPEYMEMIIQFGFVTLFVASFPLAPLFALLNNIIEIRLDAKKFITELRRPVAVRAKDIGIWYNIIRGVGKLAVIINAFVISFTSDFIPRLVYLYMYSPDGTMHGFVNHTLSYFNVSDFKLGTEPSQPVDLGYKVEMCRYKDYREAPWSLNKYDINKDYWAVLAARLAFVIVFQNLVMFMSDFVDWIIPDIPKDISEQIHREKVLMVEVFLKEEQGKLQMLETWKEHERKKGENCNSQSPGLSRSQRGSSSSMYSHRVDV
# Assay type: cell-based
# CONDITION SUMMARY: block of Cl^- current induced by 5 mM external Ca^2+; ionomycin then thapsigargin treated oocytes, chelerythrine in intracellular solution; holding potential -60 mV; read-out: IC50
MEASURED QUANTITY: pIC50
Reminder that pIC50 means the negative base-10 logarithm of the concentration expressed in mol/L.

Exercise: Quick one: pIC50 for O=C(O)c1ccccc1Nc1ccc(C(F)(F)F)cc1 [N-(4-trifluoromethylphenyl)anthranilic acid] ?
Solution: 5.22
